Molecular target: T1, PPIA (human, UniProt P62937 1-165)
T1 construct: PPIA, human; source: E. coli BL21 (DE3) Gold, purified (glutathione or Ni2+ beads)
T1 sequence (P62937 whole entry): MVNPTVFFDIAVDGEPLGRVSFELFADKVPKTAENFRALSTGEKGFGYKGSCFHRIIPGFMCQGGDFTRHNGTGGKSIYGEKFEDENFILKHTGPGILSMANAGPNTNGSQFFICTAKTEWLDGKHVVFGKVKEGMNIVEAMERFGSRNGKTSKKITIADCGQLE
Assay: fluorescence polarisation; saturation binding: dilution series of the protein domain added to 10 nM FITC-labelled peptide; 50 mM sodium phosphate pH 7.4, 0.05% Tween (protein dialysed in 50 mM sodium phosphate with 1 mM DTT; CASK kinase domain with 100 mM NaCl in addition); quadratic fit; technical triplets
Conditions: both partners purified
pKd: −log10 of the molar value. Where no end group is shown, it is not given here.
Measured Quantity: pKd

> print(dat)
                                     binder  measured.quantity  value.reported
1  EQVEYGPLQAQM (also: FITC label, position not given here) [FITC-SPHK2]                pKd            4.38
